activation for assorted compounds
target: Troponin I, cardiac muscle (Homo sapiens) + Troponin T, cardiac muscle (Homo sapiens) + Troponin C, slow skeletal and cardiac muscles (Homo sapiens) (UniProt P19429+P45379+P63316); experiment: cardiac RTF calcium sensitivity activators, confirmation, biochemical, IANBD-TnC fluorescence, triplicate (AID 504383); details: IANBD-labeled cardiac RTF, Ca2+ sensitivity fluorescence; at 7.2 µM; stronger effect = higher value; scaled from EC20 to saturating calcium; tested at EC20 calcium, 0.472 mM;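 further: 0% = DMSO at 0.472 mM calcium and 100% = DMSO at 2.9 mM calcium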
Screen size: about 2,500 compounds; about 1,200 (48%) were called active. The set was probably picked from earlier hits. The list shows a part of the results.
All answers are understood in %, so give the number only.

These solved cases illustrate the format of a correct answer.
[[record]]
compound = "COc1ccc(N/C=C2\\C(=O)CCc3c2oc2cc(Cl)c(O)c(Cl)c32)cc1"
quantity = "activation"
recorded_result = 47.7

[[record]]
compound = "CCCN1CCc2c(sc(NC(=S)NC(=O)c3ccccc3)c2C#N)C1"
quantity = "activation"
recorded_result = 270

[[record]]
compound = "COc1cccc(CNC(=O)CN(C)S(=O)(=O)c2cnc[nH]2)c1"
quantity = "activation"
recorded_result = 151

[[record]]
compound = "NS(=O)(=O)c1ccc(N2N=C(c3ccccc3)CC2c2ccccc2)cc1 (centres undefined)"
quantity = "activation"
recorded_result = 31

[[record]]
compound = "Cc1ccc(Cn2c(O)c(N=NC(=S)Nc3ccccc3F)c3cc(S(=O)(=O)N4CCOCC4)ccc32)cc1"
quantity = "activation"
recorded_result = 17.5


As a next step, examine the compound that follows.
Form: compound = Cc1ccc(-c2nc(C)sc2CC(=O)O)cc1 ; activation = 28.5

====

activation for assorted molecules
molecular target: Troponin I, cardiac muscle (Homo sapiens) + Troponin T, cardiac muscle (Homo sapiens) + Troponin C, slow skeletal and cardiac muscles (Homo sapiens) (UniProt P19429+P45379+P63316); experiment: cardiac RTF calcium sensitivity activators, confirmation, biochemical, IANBD-TnC fluorescence, triplicate (AID 504383); settings: IANBD-labeled cardiac RTF, Ca2+ sensitivity fluorescence; at 7.2 µM; stronger effect = higher value; scaled from EC20 to saturating calcium; tested at EC20 calcium, 0.472 mM;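 further: 0% = DMSO at 0.472 mM calcium and 100% = DMSO at 2.9 mM calcium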
Out of some 2,500 compounds screened, about 1,200 (48%) were called active. The set was probably picked from earlier hits. The list shows a part of the results.
All answers are understood in %, so give the number only.

[[record]]
molecule = "N#Cc1cc(C(=O)c2ccccc2O)cn(-c2nccs2)c1=O"
quantity = "activation"
recorded_result = 45.5

[[record]]
molecule = "O=C(c1ccccc1)N1C(=O)C(c2ccccc2)Oc2ccccc21 (stereo unspecified)"
quantity = "activation"
recorded_result = 1.2

[[record]]
molecule = "CCCN1C(=O)/C(=C/c2ccc(N3CCCC3)c(C)c2)NC1=S"
quantity = "activation"
recorded_result = 8.1

[[record]]
molecule = "CSc1c(CC(=O)NCCO)n(C)c2ccccc12"
quantity = "activation"
recorded_result = 23.2

[[record]]
molecule = "O=C(N/N=C/c1ccccc1OC(=O)c1ccc2c(c1)OCO2)c1cccc(F)c1"
quantity = "activation"
recorded_result = 52.1


Form: molecule = C=CCOc1ccn(C)c(=O)n1 ; activation = 12.1

Form: molecule = CN(C)CCNc1ccc2ncn3c4ccc(O)cc4c(=O)c1c23 ; activation = 11.4

Form: molecule = Cc1cc(N2CCCC2)ccc1/C=C1\NC(=S)N(C)C1=O ; activation = 11.3

Form: molecule = O=C(Oc1cc2oc(=O)c3c(c2cc1Cl)CCCC3)c1cccs1 ; activation = 1.37

Form: molecule = CCOc1cccc2c1OC(c1cc(OC)c(OC)c(OC)c1)N1N=C(c3ccc(C)o3)CC21 (stereo unspecified) ; activation = 11.7

Form: molecule = N#Cc1cc(C(=O)c2cc(F)ccc2O)cn(-c2nccs2)c1=O ; activation = 9.61

====

activation for assorted molecules
molecular target: Troponin I, cardiac muscle (Homo sapiens) + Troponin T, cardiac muscle (Homo sapiens) + Troponin C, slow skeletal and cardiac muscles (Homo sapiens) (UniProt P19429+P45379+P63316); test: cardiac RTF calcium sensitivity activators, confirmation, biochemical, IANBD-TnC fluorescence, triplicate (AID 504383); conditions: IANBD-labeled cardiac RTF, Ca2+ sensitivity fluorescence; at 7.2 µM; stronger effect = higher value; scaled from EC20 to saturating calcium; tested at EC20 calcium, 0.472 mM;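 further: 0% = DMSO at 0.472 mM calcium and 100% = DMSO at 2.9 mM calcium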
Out of some 2,500 compounds screened, about 1,200 (48%) were called active. So high a share suggests a set chosen from earlier hits. This is one part of the list.

[[record]]
molecule = "C=C(C)c1sc(-c2ccc(Cl)cc2)nc1C"
recorded_result = "1.76% (inactive)"

[[record]]
molecule = "N#C/C(=C(/O)COC(=O)c1ccccc1O)c1nc2ccccc2s1"
recorded_result = "5.53% (inactive)"

[[record]]
molecule = "Cc1ccc(-c2nc(NC(=O)CSc3cc(C)c4ccccc4n3)ns2)cc1"
recorded_result = "4.39% (inactive)"

[[record]]
molecule = "COc1ccc(S(=O)(=O)N2CCSC2)cc1C"
recorded_result = "2.98% (inactive)"

[[record]]
molecule = "O=C/C(=C\\Nc1ccc(S(=O)(=O)CCO)cc1)c1nc2cc(Cl)ccc2o1"
recorded_result = "65% (active)"

[[record]]
molecule = "O=C1c2ccccc2-c2onc3ccc(N4CCCC4)c1c23"
recorded_result = "9.75% (inactive)"

[[record]]
molecule = "O=C1c2cccc3c(N4CCCCC4)ccc(c23)C(=O)N1c1ccccc1O"
recorded_result = "-0.04% (inactive)"

[[record]]
molecule = "Cc1ccc(/C=C/C(=O)N2CCN(S(=O)(=O)c3ccc(C)c(C)c3)CC2)o1"
recorded_result = "17.9% (active)"

[[record]]
molecule = "CC(C)(Cc1cccc(CC(C)(C)C(=O)O)c1)C(=O)O"
recorded_result = "12% (active)"

[[record]]
molecule = "Cc1ccc(SCC(=O)c2sc(-c3ccccc3)nc2C)cc1"
recorded_result = "35.4% (active)"


Form: molecule = CCOc1ccc(NC(=O)COC(=O)CCN2C(=O)C3CC=CCC3C2=O)cc1OCC (stereo unspecified) ; activation = 8.79% (inactive)

Form: molecule = CN1CCc2c(sc3nc(SCC(N)=O)n(-c4ccccc4)c(=O)c23)C1 ; activation = 3.18% (inactive)

Form: molecule = CS(=O)(=O)N(CC(=O)O)Cc1cccc(CN(CC(=O)O)S(C)(=O)=O)c1 ; activation = 9.58% (inactive)

Form: molecule = COc1cc(/C=C/C(O)=C/C(=O)/C=C/c2ccc(O)cc2)ccc1O ; activation = 8.41% (inactive)

Form: molecule = CCCCCCCC(=O)Nc1ccc(S(=O)(=O)Nc2nccs2)cc1 ; activation = 39.1% (active)

====

biological target: Troponin I, cardiac muscle (Homo sapiens) + Troponin T, cardiac muscle (Homo sapiens) + Troponin C, slow skeletal and cardiac muscles (Homo sapiens) (UniProt P19429+P45379+P63316); test: cardiac RTF calcium sensitivity activators, confirmation, biochemical, IANBD-TnC fluorescence, triplicate (AID 504383); details: IANBD-labeled cardiac RTF, Ca2+ sensitivity fluorescence; at 7.2 µM; scaled from EC20 to saturating calcium; tested at EC20 calcium, 0.472 mM;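 further: 0% = DMSO at 0.472 mM calcium and 100% = DMSO at 2.9 mM calcium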
The campaign covered roughly 2,500 compounds. About 1,200 (48%) were called active.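 Rule for the calls: active = mean activation above the low control average plus 3 SD, as set in the primary screen (cut at about 12% in these data); inactive = the rest.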 So high a share suggests a set chosen from earlier hits. The list shows a part of the results.
Hi! Could you answer with just one of these? t for active, f for inactive

Observe how each entry below is paired with its result.
[[record]]
compound = "O=C(NCc1ccc(Cl)cc1)C1CCN(c2cnccn2)CC1"
class = "t"

[[record]]
compound = "O=C(NCCc1ccccc1)C1CCN(c2ncccn2)CC1"
class = "f"

[[record]]
compound = "CCOC(=O)/C(=C/C1=CC(=C/N(C)C)/C(=O)O1)C(C)=O"
class = "t"

[[record]]
compound = "CS(=O)(=O)c1ccc(C(=O)OCC(=O)Nc2cccnc2Cl)cc1[N+](=O)[O-]"
class = "t"


Fill in: this test's call for Cc1cc(C)c(C#N)c(Sc2nnnn2-c2ccccc2)n1 is ___
t

Fill in: this test's call for COc1ccccc1NC(=O)COC(=O)c1cnc(C)cn1 is ___
t

Fill in: this test's call for N#C/C(=C\c1c[nH]c2ccccc12)C(=O)Nc1ncc(Cc2ccc(Cl)cc2Cl)s1 is ___
t

====

biological target: Troponin I, cardiac muscle (Homo sapiens) + Troponin T, cardiac muscle (Homo sapiens) + Troponin C, slow skeletal and cardiac muscles (Homo sapiens) (UniProt P19429+P45379+P63316); assay: cardiac RTF calcium sensitivity activators, confirmation, biochemical, IANBD-TnC fluorescence, triplicate (AID 504383); settings: IANBD-labeled cardiac RTF, Ca2+ sensitivity fluorescence; at 7.2 µM; scaled from EC20 to saturating calcium; tested at EC20 calcium, 0.472 mM;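 further: 0% = DMSO at 0.472 mM calcium and 100% = DMSO at 2.9 mM calcium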
Screen size: about 2,500 compounds; about 1,200 (48%) were called active.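 How the source made its calls: active means mean activation above the low control average plus 3 SD, as set in the primary screen (cut at about 12% in these data); inactive means the rest.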 The set was probably picked from earlier hits. This is one part of the list.
Hi! Could you answer with just one of these? active, inactive

Observe how each entry below is paired with its result.
[[record]]
smiles_record = "CN(C)c1ccc(/C=C2\\NC(=S)N(Cc3ccccc3)C2=O)cc1"
class = "active"

[[record]]
smiles_record = "CC(=O)N(C(C)=O)N1C(=O)c2cccc3c(N4CCOCC4)ccc(c23)C1=O"
class = "inactive"

[[record]]
smiles_record = "COc1cc(/C=C2\\SC(=O)NC2=O)ccc1Oc1ccc([N+](=O)[O-])cn1"
class = "active"

[[record]]
smiles_record = "O=C1/C(=C\\c2cc(Cl)c(O)c(Cl)c2)SC(=S)N1Cc1ccccc1"
class = "inactive"

[[record]]
smiles_record = "COc1ccc(/C=C2\\SC(=S)N(CCCC(=O)Nc3ccccn3)C2=O)cc1OC"
class = "inactive"


Field: next compound
Fill in: this test's call for O=C(OCCN1C(=O)c2cccc3c(N4CCOCC4)ccc(c23)C1=O)c1ccc(Cl)cc1 is ___
active
